// data source = patent US10065941B2

- Assay Notes: Pharmacokinetic test: bioavailability and total body clearance (Test Example 15)
- Type: in vivo
- Experimental Setup: SD rats, from AUCs of oral and intravenous groups
Note to self: values exactly at 70% are 1. So BA at or above 70% is 1, below is 0.

(Q) Form field: BA at least 70%? Entry: C[C@@H](Cn1c(=O)[nH]/c(=N\c2ccc(Oc3cccc(Cl)n3)cc2)n(Cc2ccc(Cl)cc2)c1=O)C(=O)O [Compound I-014]
(A) 1

(Q) Form field: BA at least 70%? Entry: O=C(O)C1(Cn2c(=O)[nH]/c(=N\c3ccc(Oc4cccc(F)n4)cc3)n(Cc3ccc(Cl)cc3)c2=O)CC1 [Compound I-017]
(A) 1

(Q) Form field: BA at least 70%? Entry: Cc1ccc(Cn2c(=O)n(C[C@H](C)C(=O)O)c(=O)[nH]/c2=N\c2ccc(Oc3cccc(F)n3)cc2)cc1 [Compound I-057]
(A) 0

(Q) Form field: BA at least 70%? Entry: Cc1ccc(Oc2ccc(/N=c3\[nH]c(=O)n(CC(C)(C)C(=O)O)c(=O)n3Cc3ccc(Cl)cc3)cc2)nc1 [Compound I-058]
(A) 0

(Q) Form field: BA at least 70%? Entry: C[C@@H](Cn1c(=O)[nH]/c(=N\c2ccc(Oc3ccccn3)cc2)n(Cc2ccc(Cl)cc2)c1=O)C(=O)O [Compound I-127]
(A) 0

----------
- Test System: human P2X3 receptor (Homo sapiens (Human))
- Sequence (P56373 whole entry): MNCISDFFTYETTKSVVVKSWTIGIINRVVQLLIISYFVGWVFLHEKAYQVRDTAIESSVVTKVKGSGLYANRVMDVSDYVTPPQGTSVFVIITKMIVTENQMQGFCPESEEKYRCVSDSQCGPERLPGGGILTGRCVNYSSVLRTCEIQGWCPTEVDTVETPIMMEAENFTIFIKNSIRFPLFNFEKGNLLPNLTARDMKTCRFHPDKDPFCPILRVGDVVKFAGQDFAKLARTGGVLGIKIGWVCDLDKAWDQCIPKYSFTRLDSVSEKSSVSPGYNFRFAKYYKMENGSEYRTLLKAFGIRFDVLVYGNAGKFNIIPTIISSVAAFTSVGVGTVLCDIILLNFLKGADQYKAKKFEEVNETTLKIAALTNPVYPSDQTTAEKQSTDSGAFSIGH
- Assay Notes: Evaluation of human P2X3 receptor inhibitory activity (Test Example 1)
- Experimental Setup: C6BU-1 cell transfected with human P2X3 receptor gene, FLIPR 384
Measurement Name: IC50 (nM)
Give just the numeric value; nM need not be written.

In the examples that follow, each entry is paired with its recorded IC50.
Cc1ccc(Cn2c(=O)n(CCC(=O)O)c(=O)[nH]/c2=N\c2ccc(Oc3ccc(Cl)cn3)cc2)cc1    6
COC(=O)[C@@H](C)Cn1c(=O)[nH]/c(=N\c2ccc(Oc3cccc(CF)n3)cc2)n(Cc2ccc(C)cc2)c1=O    8
COC(=O)C[C@@H](C)n1c(=O)[nH]/c(=N\c2ccc(Oc3ccc(F)cn3)cc2)n(Cc2ccc(C)cc2)c1=O    5

Here is the next item to consider.
Lab note: COC(=O)C(C)(C)Cn1c(=O)[nH]/c(=N\c2ccc(Oc3cncc(C)c3)cc2)n(Cc2ccc(Cl)cc2)c1=O gave IC50 of 11

----------
- Test System: human P2X3 receptor (Homo sapiens (Human))
- Assay Notes: Evaluation of human P2X3 receptor inhibitory activity (Test Example 1)
- Experimental Setup: C6BU-1 cell transfected with human P2X3 receptor gene, FLIPR 384
Measurement Name: log10(IC50) (log10 of the value in nM)
# log10 transformed; quantity=IC50; unit=nM

In the examples that follow, each entry is paired with its recorded log10(IC50).
C[C@@H](Cn1c(=O)[nH]/c(=N\c2ccc(Oc3ccc(F)cn3)cc2)n(Cc2ccc(Cl)s2)c1=O)C(=O)O    0.70
C[C@@H](C(=O)O)[C@H](C)n1c(=O)[nH]/c(=N\c2ccc(Oc3ccc(OC(F)F)cn3)cc2)n(Cc2ccc(Cl)cc2)c1=O    0.78
Cc1ccc(Cn2c(=O)n(CCCC(=O)O)c(=O)[nH]/c2=N\c2ccc(Oc3cccc(F)n3)cc2)cc1    0.85

Lab note: COC(=O)[C@H](C)[C@H](C)n1c(=O)[nH]/c(=N\c2ccc(Oc3cnccn3)cc2)n(Cc2ccc(Cl)cc2)c1=O gave log10(IC50) of 1.04

Lab note: COc1ccc(Oc2ccc(/N=c3\[nH]c(=O)n(CC(C)(C)C(=O)O)c(=O)n3Cc3ccc(Cl)cc3)cc2)nn1 gave log10(IC50) of 0.95

Lab note: COC(=O)[C@@H](C)Cn1c(=O)[nH]/c(=N\c2ccc(OC3CCC3)c(F)c2)n(Cc2ccc(Cl)cc2)c1=O gave log10(IC50) of 1.20

Lab note: O=c1[nH]/c(=N\c2ccc(Oc3ccc(F)cn3)cc2)n(Cc2ccc(Cl)cc2)c(=O)n1CC1(CO)COC1 gave log10(IC50) of 0.78
